Measured Target: c-kit (Homo sapiens)
Construct: human Mo7e cells which endogenously express c-kit; endogenous in cells; host or cells: human Mo7e cells (promegakaryocytic leukemia line), stimulated with human recombinant SCF
Experiment Summary: Mo7e cell proliferation assay (SCF dependent proliferation)
Format: cell-based
Assay Conditions: Table 1; human Mo7e cells stimulated with SCF, 48 hours, CellTiter Glo; 1% FBS; read-out: c-kit (Mo7e)
pIC50: −log10 of the molar value.
Property Measured: pIC50

Here are 3 compounds together with their reported answers.
> print(dat)
                                   compound  measured.number
1  Cc1ccc(Nc2noc(C3CCCCO3)n2)cc1NC(=O)c1cnc2ccccn12 (centres unmarked) [F70]             8.22
2  Cc1ccn2c(C(=O)Nc3cc(-c4noc(N5CCC(F)(F)C5)n4)ccc3C)cnc2c1 [F92]             7.68
3  Cc1ccc(-c2noc(C3CN(S(C)(=O)=O)CCO3)n2)cc1NC(=O)c1cnc2ccccn12 (centres unmarked) [F35]             7.18

(I) Cc1ccn2c(C(=O)Nc3cc(-c4noc(N5CCC(F)CC5)n4)ccc3C)cnc2c1 [F90]
(II) Cc1ccc(-c2noc(CC3CCCO3)n2)cc1NC(=O)c1cnc2ccccn12 (centres unmarked) [F18]
(III) COC(=O)N1CC(c2nc(-c3ccc(C)c(NC(=O)c4cnc5cc(-c6ccn(C)n6)ccn45)c3)no2)C1 [F56]
(IV) CC(C)(C)OC(=O)N1CC(c2nc(-c3ccc(F)c(NC(=O)c4cnc5ccccn45)c3)no2)C1 [F27]
List from greatest to least pIC50. Output spec: a listing of the labels in the requested order.
III, I, II, IV
(III: 8.22, I: 7.48, II: 7.19, IV: 6.00)

(P) CCCS(=O)(=O)N1CC(c2nc(-c3ccc(C)c(NC(=O)c4cnc5ccccn45)c3)no2)C1 [F16]
(Q) COC(=O)N1CC(c2nc(-c3ccc(C)c(NC(=O)c4cnn5ccccc45)c3)no2)C1 [F48]
Compare reported pIC50 values for P and Q . Which is lower? Refer to your chosen entry by its label in the reply.
Q
(Q: 7.10, P: 7.46)

(1) COC(=O)N1CC(c2nc(-c3ccc(C)c(NC(=O)c4cnc5ccc(CCN6CCOCC6)cn45)c3)no2)C1 [F66]
(2) COC(=O)N1CC(c2nc(-c3ccc(C)c(NC(=O)c4cnc5ccc(OC)cn45)c3)no2)C1 [F60]
From the recorded data, which exceeds the other in pIC50: 1 or 2 ? Indicate your choice by writing its label.
2

(a) Cc1ccc(Nc2noc(C3CCOCC3)n2)cc1NC(=O)c1cnc2ccccn12 [F69]
(b) Cc1ccc(-c2nc(N3CC(F)(F)C3)no2)cc1NC(=O)c1cnc2ccccn12 [F2]
// returns a or b , whichever has the lower pIC50 Answer with the label corresponding to your selection.
a

* * *

Measured Target: c-kit (Homo sapiens, UniProt P10721)
Construct: human Mo7e cells which endogenously express c-kit; endogenous in cells; host or cells: human Mo7e cells (promegakaryocytic leukemia line), stimulated with human recombinant SCF
Sequence (P10721 26-976): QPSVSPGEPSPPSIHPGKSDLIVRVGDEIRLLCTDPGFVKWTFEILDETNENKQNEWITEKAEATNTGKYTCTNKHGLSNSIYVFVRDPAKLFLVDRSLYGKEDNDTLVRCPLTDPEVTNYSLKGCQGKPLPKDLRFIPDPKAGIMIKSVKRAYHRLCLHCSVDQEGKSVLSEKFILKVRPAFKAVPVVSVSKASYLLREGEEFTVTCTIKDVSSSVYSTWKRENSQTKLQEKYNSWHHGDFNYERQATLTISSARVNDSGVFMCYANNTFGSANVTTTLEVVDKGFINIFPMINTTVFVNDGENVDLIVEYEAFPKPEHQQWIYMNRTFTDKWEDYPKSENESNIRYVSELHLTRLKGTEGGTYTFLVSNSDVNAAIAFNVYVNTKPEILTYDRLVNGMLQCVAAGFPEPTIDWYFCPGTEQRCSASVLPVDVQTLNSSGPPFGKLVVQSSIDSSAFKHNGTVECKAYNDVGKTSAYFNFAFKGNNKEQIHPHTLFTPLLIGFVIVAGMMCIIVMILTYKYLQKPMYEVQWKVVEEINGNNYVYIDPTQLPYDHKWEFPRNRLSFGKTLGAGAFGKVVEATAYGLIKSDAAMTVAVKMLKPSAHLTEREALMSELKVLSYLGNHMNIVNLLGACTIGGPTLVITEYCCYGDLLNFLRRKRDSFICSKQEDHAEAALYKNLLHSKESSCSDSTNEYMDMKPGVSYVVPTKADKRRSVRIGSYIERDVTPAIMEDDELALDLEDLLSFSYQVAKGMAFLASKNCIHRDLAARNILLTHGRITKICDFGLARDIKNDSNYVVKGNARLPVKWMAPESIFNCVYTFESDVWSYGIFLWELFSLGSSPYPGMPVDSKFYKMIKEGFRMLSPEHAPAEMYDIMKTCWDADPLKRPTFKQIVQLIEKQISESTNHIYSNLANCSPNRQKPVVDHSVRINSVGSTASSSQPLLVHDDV
Experiment Summary: Mo7e cell proliferation assay (SCF dependent proliferation)
Type: cell-based
Assay Conditions: Table 2; human Mo7e cells stimulated with SCF, 48 hours, CellTiter Glo; 1% FBS; read-out: c-kit (Mo7e)
Property Measured: IC50 (nM)

Below, each entry is followed by its recorded IC50 result.
> print(dat)
                                    molecule  measured.number
 1  Cc1ccc(-c2noc(CCC(=O)N3CCN(C)CC3)n2)cc1NC(=O)c1cnc2ccccn12             4640
 2  Cc1ccc(-c2noc(CNC(=O)C3(C)COC3)n2)cc1NC(=O)c1cnc2ccccn12              150
 3  O=C(Nc1cc(-c2noc(C3CN(S(=O)(=O)C(F)F)C3)n2)ccc1F)c1cnc2ccccn12              151
 4  COCCS(=O)(=O)N1CC(c2nc(-c3ccc(F)c(NC(=O)c4cnc5ccccn45)c3)no2)C1              376
 5  COC(=O)N1CC(c2nc(-c3ccc(C)c(NC(=O)c4cnc5ccc(C#N)cn45)c3)no2)C1              103
 6  COC(=O)N1CCC(c2nc(-c3ccc(C)c(NC(=O)c4cnc5ccccn45)c3)no2)C1 (stereo not drawn)              132
 7  Cc1ccc(-c2noc(C3CN(C(=O)OCC(F)(F)F)C3)n2)cc1NC(=O)c1cnc2ccccn12              438
 8  Cc1ccn2c(C(=O)Nc3cc(-c4noc(N5CCN6C(=O)OC[C@@H]6C5)n4)ccc3C)cnc2c1              129
 9  COC(=O)N1CC[C@@H](Cc2nc(-c3ccc(C)c(NC(=O)c4cnc5ccccn45)c3)no2)C1              200
10  Cc1ccc2ncc(C(=O)Nc3cc(-c4noc(C5CCN5C(=O)OC(C)(C)C)n4)ccc3C)n2c1 (stereo not drawn)              291

(P) Cc1ccc(-c2noc(C3(C)CN(C(=O)OC(C)(C)C)C3)n2)cc1NC(=O)c1cnc2ccccn12
(Q) Cc1ccc(-c2noc([C@@H]3CCCN(C(=O)OC(C)(C)C)C3)n2)cc1NC(=O)c1cnc2ccccn12
(R) Cc1ccc(-c2noc(CCN3CC(F)(F)C3)n2)cc1NC(=O)c1cnc2ccccn12
Please list the entries, largest IC50 first. Output spec: a listing of the labels in the requested order.
P, Q, R
(P: 831 nM, Q: 291 nM, R: 119 nM)

(P) Cn1ccc(S(=O)(=O)N2CC(c3nc(-c4ccc(F)c(NC(=O)c5cnc6ccccn56)c4)no3)C2)n1
(Q) COCCCN1CC(c2nc(-c3ccc(C)c(NC(=O)c4cnc5ccccn45)c3)no2)C1
(R) COC(=O)N1CCOC[C@@H]1c1nc(-c2ccc(C)c(NC(=O)c3cnc4ccccn34)c2)no1
(S) Cc1ccc(-c2nc(C3CN(C(=O)OC(C)(C)C)C3)no2)cc1NC(=O)c1cnc2ccccn12
Ascending by IC50, please: list the molecules accordingly. To answer, arrange all of the labels according to the requested order.
R, Q, P, S

(1) CC(=O)N1CCC[C@H]1c1nc(-c2ccc(C)c(NC(=O)c3cnc4ccccn34)c2)no1
(2) Cc1ccc(-c2noc(C3CCCCN3)n2)cc1NC(=O)c1cnc2ccccn12 (stereo not drawn)
(3) Cc1ccc(-c2noc(C3CN(C(=O)OCCCN4CCOCC4)C3)n2)cc1NC(=O)c1cnc2ccccn12
(4) Cc1ccc(-c2noc([C@@H]3C[C@H](O)CN3S(C)(=O)=O)n2)cc1NC(=O)c1cnc2ccc(F)cn12
Rank ascending by IC50. Provide your answer as the labels ordered per the instruction.
2, 1, 3, 4

(I) Cc1ccc(-c2noc([C@H]3CCCN3)n2)cc1NC(=O)c1cnc2ccccn12
(II) COC(=O)N1CC(c2nc(-c3ccc(C)c(NC(=O)c4cnc5cc(C(F)(F)F)ccn45)c3)no2)C1
(III) Cc1ccc2ncc(C(=O)Nc3cc(-c4noc([C@@H]5CCN5)n4)ccc3C)n2c1
(IV) Cc1ccc(-c2noc([C@H]3COCCN3C(=O)OC(C)(C)C)n2)cc1NC(=O)c1cnc2ccccn12
(V) COCC1CN(Cc2nc(-c3ccc(C)c(NC(=O)c4cnc5ccccn45)c3)no2)C1
Arrange items by their IC50 values in increasing order. Returns: the labels arranged in the requested order.
II, V, I, IV, III
(II: 130 nM, V: 259 nM, I: 395 nM, IV: 629 nM, III: 1310 nM)

(a) O=C(Nc1cc(-c2noc(CN3CC(F)(F)C3)n2)ccc1F)c1cnc2ccccn12
(b) Cc1ccc(-c2noc(C[C@H]3CCN(S(C)(=O)=O)C3)n2)cc1NC(=O)c1cnc2ccccn12
From the recorded data, which exceeds the other in IC50: a or b ? The response must carry the label of the picked entry.
a

(a) O=C(Nc1cc(-c2noc(C3CN(S(=O)(=O)c4cccnc4)C3)n2)ccc1F)c1cnc2ccccn12
(b) Cc1ccc(-c2noc(C3CN(S(=O)(=O)C4CCN(C(=O)OC(C)(C)C)C4)C3)n2)cc1NC(=O)c1cnc2ccccn12 (stereo not drawn)
Among a and b , which shows a numerically higher IC50 result? Bench note: the answer is the label of the chosen record.
a

* * *

Measured Target: c-kit (Homo sapiens)
Construct: human Mo7e cells which endogenously express c-kit; endogenous in cells; host or cells: human Mo7e cells (promegakaryocytic leukemia line), stimulated with human recombinant SCF
Experiment Summary: Mo7e cell proliferation assay (SCF dependent proliferation)
Assay type: cell-based
Assay Conditions: Table 1; human Mo7e cells stimulated with SCF, 48 hours, CellTiter Glo; 1% FBS; read-out: c-kit (Mo7e)
pIC50: −log10 of the molar value.
Property Measured: pIC50

Solved entries (count: 5):
> print(dat)
                                   compound  measured.number
1  Cc1ccc(-c2noc([C@H]3CN(S(C)(=O)=O)CCO3)n2)cc1NC(=O)c1cnc2ccccn12             7.22
2  Cc1ccc(-c2noc(C3CN(S(N)(=O)=O)C3)n2)cc1NC(=O)c1cnc2ccccn12             7.06
3  CCOC(=O)N1CC(c2nc(-c3ccc(C)c(NC(=O)c4cnc5ccccn45)c3)no2)C1             7.03
4  COC(=O)N1CCC[C@H]1Cc1nc(-c2ccc(C)c(NC(=O)c3cnc4ccccn34)c2)no1             7.03
5  CCS(=O)(=O)N1CC(c2nc(-c3ccc(C)c(NC(=O)c4cnc5ccccn45)c3)no2)C1             7.48

(P) COC(=O)N1CC(c2nc(-c3ccc(C)c(NC(=O)c4cnc5cc(-c6cnn(CCN7CCOCC7)c6)ccn45)c3)no2)C1
(Q) Cc1ccc(-c2noc([C@@H]3CCCN(S(C)(=O)=O)C3)n2)cc1NC(=O)c1cnc2ccccn12
(R) Cc1ccc(-c2noc(CCCN3CCOCC3)n2)cc1NC(=O)c1cnc2ccccn12
(S) COC(=O)N1CC(c2nc(-c3ccc(C)c(NC(=O)c4cnc5cc(C)ccn45)c3)no2)C1
(T) Cc1ccc(-c2noc(C3CN(C(=O)OC(C)(C)C)C3)n2)cc1NC(=O)c1cnc2ccccn12
Place the items in sequence of falling pIC50. List the labels, following the order given in the request.
P, S, Q, R, T

(1) COC(=O)N1CC(c2nc(-c3ccc(C)c(NC(=O)c4cnc5ccc(CCC(C)=O)cn45)c3)no2)C1
(2) Cc1ccc(-c2noc(C3(C)CN(S(C)(=O)=O)C3)n2)cc1NC(=O)c1cnc2ccccn12
Just curious, which one has the larger pIC50 reading, 1 or 2 ? // return label of chosen record
1
(1: 7.48, 2: 7.05)
